Below is a list of entries, each paired with its recorded median fluorescence, fold over isotype control (fold over isotype) value.
target: SARS-CoV-2 Spike (S) protein, wild type, full length (SARS-CoV-2), P0DTC2; conditions: remark: other sources report otherwise
Number only, please.

# annotated cases, reported median fluorescence, fold over isotype control (fold over isotype) shown
1. antibody 499 (antibody, V domains shown) VH: EVQLVESGGGLVKPGGSLRLSCAASGFTFSSYSMNWVRQAPGKGLEWVSSISSSSSYIYYADSVKGRFTISRDNAKNSLYLQMNSLRAEDTAVYYCARAPAGIVVGPDYWGQGTLVTVSS VL: NFMLTQPHSVSESPGKTVTISCTGSSGSIASNYVQWYQQRPGSAPTTVIFEDNQRPSGVPDRFSGSIDSSSNSASLTISGLKTEDEADYYCQSYHSSNPHVVFGGGTKLTVL    0.9
2. antibody 521 (antibody, V domains shown) VH: QVQLVESGGGVVQPGRSLRLSCAASGFTFSSYGMHWVRQAPGKGLEWVAVIWYDGSNKYYADSVKGRFTISRDNSKNTLYLQMNSLRAEDTAVYYCAREGNDYGDYGEWELLGYFDYWGQGTLVTVSS VL: SYELTQPPSVSVSPGQTARITCSGDALPKKYAYWYQQKSGQAPVLVIYEDSKRPSGIPERFSGSSSGTMATLTISGAQVEDEADYYCYSTDSSGNHRRVFGGGTKLTVL    0.86

Quickly give me recorded median fluorescence, fold over isotype control (fold over isotype) for antibody 493 (antibody, V domains shown) VH: EVQLVESGGGLIQPGRSLRLSCAASGFTVSITYMSWVRQAPGKGLEWVSLIYSGGSSYYADSVKGRFTISRDNSKNTLYLQMNSLRAEDTAVYYCATTMVRGVIISYYYGMDVWGQGTTVTVSS VL: QSALTQPASVSGSPGQSITISCTGTSSDVGGYNYVSWYQQHPGKAPKLMIYEVSNRPSGVSNRFSGSKSGNTASLTISGLQAEDEADYYCSSYTSSSTLVFGGGTKLTVL
1.1

Check the records and state median fluorescence, fold over isotype control (fold over isotype) for antibody 495 (antibody, V domains shown) VH: QITLKESGPTLVKPTQTLTLTCTFSGFSLSTSGVGVGWIRQPPGKALEWLALIYWDDDKRYSPSLKSRLTITKDTSKNQVVLIMTNMDPVDTATYYCAHRDSSSWFDLDAFDIWGQGTMVIVSS VL: QSVLTQPPSVSEAPRQRVTISCSGSSSNIGNNAVNWYQQLPGKAPKLLIYYDDLLPSGVSDRFSGSKSGTSASLAISGLQSEDEADYYCAAWDDRLNGPVFGGGTKLTVL
0.83

These entries and their values trace back to patent US20220356229A1.
